System: c-Src;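 further: 11-residue human phosphosite peptides and single-mutation variants displayed on the E. coli surface, counted by deep sequencing, each peptide's frequency after selection divided by its frequency in the unselected input library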;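 further: frequency after pTyr selection over input frequency; kinase dosed for 20-30% of maximal phosphorylation in three min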
experiment: phosphorylation enrichment, bacterial display (enrichment ratio); higher = better substrate or ligand; peptides without Tyr show the background
phosphorylation enrichment below 0.5 gives F; phosphorylation enrichment at or above it gives T.

query: Item SLGSPYGQPPR [PDLIM4_Y137] with phosphorylation enrichment of 0.5 or above?
result: F

query: Could you verify whether the entry AAVPAYDKIRV [STXBP2_Y401] shows phosphorylation enrichment of no less than 0.5?
result: F

query: Decide: phosphorylation enrichment of DENWFYMRAAS [RPS19_Y54_T55M] >= 0.5?
result: F

query: Check the entry SNYRAYATEPQ [TNNI3_Y29_H34Q] : does phosphorylation enrichment equal or exceed 0.5?
result: F

query: Textbook exercise: given the entry YISLIYTNYEV [GSTP1_Y109_A114V] , state whether its phosphorylation enrichment is greater than or equal to 0.5.
result: T

query: Dear colleague, could you confirm whether KPFRVYCDMNT [FGB_Y269_YF] has phosphorylation enrichment at or above 0.5?
result: F

query: Evaluate VCDSNYSASRW [LRP5_Y1552_D1551N] : phosphorylation enrichment at minimum 0.5?
result: F

query: Identify whether the reported phosphorylation enrichment of the following sequence is 0.5 or greater: MEYAKYGSLRG [RET_Y809_V804M]
result: T

query: Item KKILCYIQGGS [HYDIN_Y4610_N4606K] with phosphorylation enrichment of 0.5 or above?
result: F

query: Threshold query (phosphorylation enrichment >= 0.5) on LFSGDYFRIQG [DDR2_Y740_YF]
result: T

query: Confirm if phosphorylation enrichment reported for the sequence SRIWVYNHFRC [BRCA2_Y2621_W2626C_YF] is 0.5 or above.
result: F

query: Please tell me: is the sequence SVMAEYGLFAA [VSX2_Y219_G223A_YF] at or over 0.5 in terms of phosphorylation enrichment?
result: T

query: Quick check: does LITTLYSGFLG [KCNQ1_Y267_I268S] have phosphorylation enrichment greater than or equal to 0.5?
result: T

query: Determine whether this sequence has phosphorylation enrichment no lower than 0.5: RHNEIYEIKVD [LGR5_Y387]
result: T
